Sourced from patent US20140348834A1

- tgt: human IL-17A (human, UniProt Q16552 24-155)
- Sequence (Q16552 24-155): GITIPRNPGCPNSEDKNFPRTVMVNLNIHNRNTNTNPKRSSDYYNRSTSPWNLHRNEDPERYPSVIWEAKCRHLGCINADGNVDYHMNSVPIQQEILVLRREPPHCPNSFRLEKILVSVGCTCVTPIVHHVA
- procedureSummary: cell-based or functional assay
measuredMetric: Potency (pM), IL-17-driven IL-6 production in HS27 cells
Value expressed in pM; do not type the unit.

Field Potency (pM), IL-17-driven IL-6 production in HS27 cells (entry ML109-1D8 (antibody, V domains shown) VH: QVQLQQSGAELVRPGASVKLSCKASGYTFSDYEMHWVKQTPVHGLEWIGVIHPGNGGTAYNQKFRDKATLTADKSSTTAYMELSSLTSEDSAVYYCIRFLTYEGYFDYWGQGTTLTVSS VL: SIVMTQTPKFLLVSAGDRVTITCKASQSVNNDVAWFQHKPGQSPKLLINYASNRYTGVPDRFTGSGYGTDFTFTISTVQSEDLAIYFCQQDYGSPYTFGGGTTLEIKR ) reads 62

Field Potency (pM), IL-17-driven IL-6 production in HS27 cells (entry ML109-5C5 (antibody, V domains shown) VH: QVQLQQSGAELVRPGASVKLSCKALGYTFTDYEFHWVKQTPVHGLEWIGVIHPGNGGTAYNQNFRDKATLTADKSSSTAYMELSSLTSEDSGVYYCTRFLTYEGYFDYWGQGTALTVSS VL: NIVMTQTPKFLLVSPGDRVTITCKASQSVSIDVGWFQQKPGQSPKLLIYHASNRYTGVPDRFTGSGYGTDFTFTVNTVQAEDLAVYFCQQDYSSPYTFGGGTKLELKR ) reads 23

Field Potency (pM), IL-17-driven IL-6 production in HS27 cells (entry ML109-7D7 (antibody, V domains shown) VH: QVQLQQSGAELVRPGTSVTLSCKASGYRFTDYEIHWIKQTPAQVLEWIGVTDPESGGTLHNPKFDGKATLTADKSSRTAYMELRSLTSEDSAVYYCTRYYKYESFYGMDYWGQGTSVTVSS VL: QIVLTQSPAIMSAFPGEKVTMTCSASSSISYMCWYQQKPGTSPKRWICDTSKLASGVPVRFSGSGSGTSYSLTINSMETEDAATYYCQQRSSYPWTFGGGTKVEIKR ) reads 81
